- Tested on: 287954-098-R-J1 tumor spheroid viability
- Test method notes: Anticancer human tumor 287954-098-R-J1 patient-derived Ewing sarcoma cell line growth inhibition
- Condition label: second compound 0.000949 µM; first compound 3.16 µM; stronger effect = lower value; spheroids with HUVEC and MSC
Readout label: viability, T/C (%)
Note: unit % is implicit; provide only the numeric part.

I would be grateful if you could share the reported viability, T/C for COc1ccc([C@@H](O)c2cc(-c3ncnc4cc(N5CCOCC5)ccc34)c(F)cc2Cl)nn1 + COc1cc2c(cc1O)CCNC21CSC2c3c(OC(C)=O)c(C)c4c(c3C(COC1=O)N1C(O)C3Cc5cc(C)c(OC)c(O)c5C(C21)N3C)OCO4 . 0.12

I would be grateful if you could share the reported viability, T/C for CC1COCCN1c1cc(-c2ccnn2C)c2ccnc(-c3ccn[nH]3)c2n1 (stereo unspecified) + COc1cc2c(cc1O)CCNC21CSC2c3c(OC(C)=O)c(C)c4c(c3C(COC1=O)N1C(O)C3Cc5cc(C)c(OC)c(O)c5C(C21)N3C)OCO4 . 0.03

I would be grateful if you could share the reported viability, T/C for [2H]c1nc(C)nc([2H])c1-c1cc(NC[C@@H](C)c2cccc3c(C(=O)NC)ccnc23)ncn1 + COc1cc2c(cc1O)CCNC21CSC2c3c(OC(C)=O)c(C)c4c(c3C(COC1=O)N1C(O)C3Cc5cc(C)c(OC)c(O)c5C(C21)N3C)OCO4 . 0.26

I would be grateful if you could share the reported viability, T/C for CC(C)n1c(=O)n(C)c2cnc3cc(F)c(-c4ccc(OCCCN5CCCCC5)nc4)cc3c21 + COc1cc2c(cc1O)CCNC21CSC2c3c(OC(C)=O)c(C)c4c(c3C(COC1=O)N1C(O)C3Cc5cc(C)c(OC)c(O)c5C(C21)N3C)OCO4 . 0.33

I would be grateful if you could share the reported viability, T/C for Cc1cc(C)c(CNC(=O)c2cc(-c3ccc(CN4CCOCC4)cc3)cc3c2cnn3C2CCCC2)c(=O)[nH]1 + COc1cc2c(cc1O)CCNC21CSC2c3c(OC(C)=O)c(C)c4c(c3C(COC1=O)N1C(O)C3Cc5cc(C)c(OC)c(O)c5C(C21)N3C)OCO4 . 0.18

I would be grateful if you could share the reported viability, T/C for COc1cc(C)[nH]c(=O)c1CN1CCc2c(Cl)cc(C(OC)C3COC3)c(Cl)c2C1=O (stereo unspecified) + COc1cc2c(cc1O)CCNC21CSC2c3c(OC(C)=O)c(C)c4c(c3C(COC1=O)N1C(O)C3Cc5cc(C)c(OC)c(O)c5C(C21)N3C)OCO4 . 0.25

###

Hi there, I'd appreciate the recorded viability, T/C for every entry that follows.
- System: 287954-098-R-J1 tumor spheroid viability
- Test method notes: Anticancer human tumor 287954-098-R-J1 cell line growth inhibition
- Condition label: second compound 3.16 µM; first compound 0.3 µM; stronger effect = lower value; spheroids with HUVEC and MSC

I would be grateful if you could share the reported viability, T/C for CNCc1ccc(-c2cc(-c3nc(-c4ccc(S(=O)(=O)C(C)C)cc4)cnc3N)on2)cc1 + Cn1nnc2c(C(N)=O)ncn2c1=O . 107%

I would be grateful if you could share the reported viability, T/C for Cc1sc2c(c1C)C(c1ccc(Cl)cc1)=NC(CC(=O)Nc1ccc(O)cc1)c1nnc(C)n1-2 (centres undefined) + Cn1nnc2c(C(N)=O)ncn2c1=O . 91.9%

I would be grateful if you could share the reported viability, T/C for Cn1ncnc1[C@H]1c2n[nH]c(=O)c3cc(F)cc(c23)N[C@@H]1c1ccc(F)cc1 + Cn1nnc2c(C(N)=O)ncn2c1=O . 99.2%

I would be grateful if you could share the reported viability, T/C for O=C(c1cc(Cc2n[nH]c(=O)c3ccccc23)ccc1F)N1CCN(C(=O)C2CC2)CC1 + Cn1nnc2c(C(N)=O)ncn2c1=O . 101%

###

- System: 287954-098-R-J1 tumor spheroid viability
- Test method notes: Anticancer human tumor 287954-098-R-J1 cell line growth inhibition;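 also: luminescent signal taken as surrogate of viable cell content; spheroids exposed to compound for 7 days before viability readout; 100% = DMSO vehicle control viability and lower means growth inhibition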
- Condition label: second compound 3.16 µM; first compound 0.316 µM; stronger effect = lower value; spheroids with HUVEC and MSC
Hi there, I'd appreciate the recorded viability, T/C for every entry that follows.
Note: unit % is implicit; provide only the numeric part.

I would be grateful if you could share the reported viability, T/C for COc1cc(C)[nH]c(=O)c1CN1CCc2c(Cl)cc(C(OC)C3COC3)c(Cl)c2C1=O (stereo unspecified) + Cn1nnc2c(C(N)=O)ncn2c1=O . 96.5

I would be grateful if you could share the reported viability, T/C for COc1ccc([C@@H](O)c2cc(-c3ncnc4cc(N5CCOCC5)ccc34)c(F)cc2Cl)nn1 + Cn1nnc2c(C(N)=O)ncn2c1=O . 104

I would be grateful if you could share the reported viability, T/C for Cc1cc(C)c(CNC(=O)c2cc(-c3ccc(CN4CCOCC4)cc3)cc3c2cnn3C2CCCC2)c(=O)[nH]1 + Cn1nnc2c(C(N)=O)ncn2c1=O . 100

I would be grateful if you could share the reported viability, T/C for [2H]c1nc(C)nc([2H])c1-c1cc(NC[C@@H](C)c2cccc3c(C(=O)NC)ccnc23)ncn1 + Cn1nnc2c(C(N)=O)ncn2c1=O . 99.3

I would be grateful if you could share the reported viability, T/C for CC(C)n1c(=O)n(C)c2cnc3cc(F)c(-c4ccc(OCCCN5CCCCC5)nc4)cc3c21 + Cn1nnc2c(C(N)=O)ncn2c1=O . 110

I would be grateful if you could share the reported viability, T/C for CC1COCCN1c1cc(-c2ccnn2C)c2ccnc(-c3ccn[nH]3)c2n1 (stereo unspecified) + Cn1nnc2c(C(N)=O)ncn2c1=O . 15.7

###

Hi there, I'd appreciate the recorded viability, T/C for every entry that follows.
- Test system: 287954-098-R-J1 tumor spheroid viability
- Test method notes: Anticancer human tumor 287954-098-R-J1 cell line growth inhibition;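 also: luminescent signal taken as surrogate of viable cell content; spheroids exposed to compound for 7 days before viability readout; 100% = DMSO vehicle control viability and lower means growth inhibition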
- Condition label: second compound 94.9 pM; first compound 0.0316 µM; stronger effect = lower value; spheroids with HUVEC and MSC
Note: unit % is implicit; provide only the numeric part.

I would be grateful if you could share the reported viability, T/C for [2H]c1nc(C)nc([2H])c1-c1cc(NC[C@@H](C)c2cccc3c(C(=O)NC)ccnc23)ncn1 + COc1cc2c(cc1O)CCNC21CSC2c3c(OC(C)=O)c(C)c4c(c3C(COC1=O)N1C(O)C3Cc5cc(C)c(OC)c(O)c5C(C21)N3C)OCO4 . 106

I would be grateful if you could share the reported viability, T/C for COc1cc(C)[nH]c(=O)c1CN1CCc2c(Cl)cc(C(OC)C3COC3)c(Cl)c2C1=O (configuration not stated) + COc1cc2c(cc1O)CCNC21CSC2c3c(OC(C)=O)c(C)c4c(c3C(COC1=O)N1C(O)C3Cc5cc(C)c(OC)c(O)c5C(C21)N3C)OCO4 . 108

###

- Tested on: 287954-098-R-J1 tumor spheroid viability
- Test method notes: Anticancer human tumor 287954-098-R-J1 cell line growth inhibition; active = viability on the fitted dose curve at most 10% of control; inactive = the rest;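 also: luminescent signal taken as surrogate of viable cell content; spheroids exposed to compound for 7 days before viability readout; 100% = DMSO vehicle control viability and lower means growth inhibition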
- Condition label: second compound 100 µM; first compound 0.316 µM; spheroids with HUVEC and MSC
One label from this list, please: active, inactive

Per the assay record, what outcome was assigned to CC(C)n1c(=O)n(C)c2cnc3cc(F)c(-c4ccc(OCCCN5CCCCC5)nc4)cc3c21 + Cn1nnc2c(C(N)=O)ncn2c1=O ? inactive

Per the assay record, what outcome was assigned to [2H]c1nc(C)nc([2H])c1-c1cc(NC[C@@H](C)c2cccc3c(C(=O)NC)ccnc23)ncn1 + Cn1nnc2c(C(N)=O)ncn2c1=O ? inactive

Per the assay record, what outcome was assigned to Cc1cc(C)c(CNC(=O)c2cc(-c3ccc(CN4CCOCC4)cc3)cc3c2cnn3C2CCCC2)c(=O)[nH]1 + Cn1nnc2c(C(N)=O)ncn2c1=O ? inactive

Per the assay record, what outcome was assigned to COc1ccc([C@@H](O)c2cc(-c3ncnc4cc(N5CCOCC5)ccc34)c(F)cc2Cl)nn1 + Cn1nnc2c(C(N)=O)ncn2c1=O ? inactive

Per the assay record, what outcome was assigned to CC1COCCN1c1cc(-c2ccnn2C)c2ccnc(-c3ccn[nH]3)c2n1 (stereo unspecified) + Cn1nnc2c(C(N)=O)ncn2c1=O ? active

Per the assay record, what outcome was assigned to COc1cc(C)[nH]c(=O)c1CN1CCc2c(Cl)cc(C(OC)C3COC3)c(Cl)c2C1=O (stereo unspecified) + Cn1nnc2c(C(N)=O)ncn2c1=O ? inactive

###

- Test system: 287954-098-R-J1 tumor spheroid viability
- Test method notes: Anticancer human tumor 287954-098-R-J1 cell line growth inhibition;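 also: luminescent signal taken as surrogate of viable cell content; spheroids exposed to compound for 7 days before viability readout; 100% = DMSO vehicle control viability and lower means growth inhibition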
- Condition label: second compound 1 µM; first compound 0.1 µM; stronger effect = lower value; spheroids with HUVEC and MSC
Readout label: viability, T/C (%)
Note: unit % is implicit; provide only the numeric part.

I would be grateful if you could share the reported viability, T/C for CC1COCCN1c1cc(-c2ccnn2C)c2ccnc(-c3ccn[nH]3)c2n1 (stereo unspecified) + Cn1nnc2c(C(N)=O)ncn2c1=O . 75.2

I would be grateful if you could share the reported viability, T/C for CC(C)n1c(=O)n(C)c2cnc3cc(F)c(-c4ccc(OCCCN5CCCCC5)nc4)cc3c21 + Cn1nnc2c(C(N)=O)ncn2c1=O . 97.6

I would be grateful if you could share the reported viability, T/C for [2H]c1nc(C)nc([2H])c1-c1cc(NC[C@@H](C)c2cccc3c(C(=O)NC)ccnc23)ncn1 + Cn1nnc2c(C(N)=O)ncn2c1=O . 103

I would be grateful if you could share the reported viability, T/C for COc1ccc([C@@H](O)c2cc(-c3ncnc4cc(N5CCOCC5)ccc34)c(F)cc2Cl)nn1 + Cn1nnc2c(C(N)=O)ncn2c1=O . 109

I would be grateful if you could share the reported viability, T/C for Cc1cc(C)c(CNC(=O)c2cc(-c3ccc(CN4CCOCC4)cc3)cc3c2cnn3C2CCCC2)c(=O)[nH]1 + Cn1nnc2c(C(N)=O)ncn2c1=O . 100

I would be grateful if you could share the reported viability, T/C for COc1cc(C)[nH]c(=O)c1CN1CCc2c(Cl)cc(C(OC)C3COC3)c(Cl)c2C1=O (stereo unspecified) + Cn1nnc2c(C(N)=O)ncn2c1=O . 89.7
